- procedure_details: chemical genetic growth profiling, strain panel (AID 1159580);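 note: tested at 20 µM; growth read once vehicle control cultures reached saturation at 30 °C; 1 = growth at the plate median or of vehicle wells; lower values mean less growth of the strain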
- test_context: S. cerevisiae deletion strains, growth OD, locus YLR342W, strain FKS1
Hit rate of the full screen: of about 5,500 compounds, about 2,000 (36%) were called active. Not shown: some 18% with an inconclusive outcome. Cut-off read from the data, not from the text of the source: active = normalized growth mostly below about 0.91 (no sharp cut-off); inconclusive = no clear call, values can overlap the other calls; inactive = mostly above about 0.92. The list shows a part of the results. *1 amine or outer side, *2 acyl side, *3 side chain or, on linkers, in order; H or OH if unused. Where a SMILES comes first, the peptide text is derived from it. Bridges are numbered along the chain shown (N, C = ends). [ ]: non-standard residue; d: D form. The star is where a group is joined. ξ: configuration not given here. ΔAla(E,3-NHCONH2) = NC(=O)N/C=C(/N)C(=O)O; X2 = NC1=NCCC(C(N[*:1])C(=O)[*:2])N1; ξβ3hOrn = NCCCC(N)CC(=O)*; Dap = NC[CH](N)C(=O)O
Respond using exactly one of the listed classes: active, inactive

Here's what some known entries look like.
# molecule, assigned_label
records = [
    ("CC(=O)Oc1cccc2c1C(=O)c1c(OC(C)=O)cc(C(=O)O)cc1C2=O", "active"),
    ("OCc1c[nH]c2ccccc12", "active"),
]

Please share the test call associated with CC1=C(O)C(=O)C=C2C1=CC=C1[C@@]2(C)CC[C@@]2(C)[C@@H]3C[C@](C)(C(=O)O)CC[C@]3(C)CC[C@]12C .
active

Please share the test call associated with COc1ccc2c(c1)[C@]13CCCC[C@H]1[C@H](C2)N(C)CC3 .
inactive

Please share the test call associated with CNS(=O)(=O)c1ccc(NC(=O)c2ccccc2C(=O)O)cc1 .
inactive

Please share the test call associated with COC(=O)C[C@H]1C(C)(C)[C@@H](O)[C@@H]2CC3=C4C=C(OC)O[C@@H](c5ccoc5)[C@]4(C)CCC3[C@@]1(C)C2=O (some centres undefined) .
inactive

Please share the test call associated with O=C(CCBr)N1CCN(C(=O)CCBr)CC1 .
inactive

Please share the test call associated with COc1c2ccoc2cc2oc(C)cc(=O)c12 .
inactive

Please share the test call associated with CNC(Cc1c[nH]c2ccccc12)C(=O)O (centres undefined) .
inactive

Please share the test call associated with CC(=O)NO .
inactive

Please share the test call associated with NCCCC(N)CC(=O)NCC1NC(=O)C(CO)NC(=O)C(N)CNC(=O)C(C2CCN=C(N)N2)NC(=O)/C(=C\NC(N)=O)NC1=O (stereo not drawn) (H-[Dap]S[Dap](ξβ3hOrn)[ΔAla(E,3-NHCONH2)][X2]; lactam 1-C; configuration not given here) .
inactive

----------
- procedure_details: chemical genetic growth profiling, strain panel (AID 1159580);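 note: tested at 20 µM; growth read once vehicle control cultures reached saturation at 30 °C; 1 = growth at the plate median or of vehicle wells; lower values mean less growth of the strain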
- test_context: S. cerevisiae deletion strains, growth OD, locus YNL128W, strain TEP1, hits give low values
Among all 5,500 compounds or so, about 2,000 (36%) were called active. Another 18% or so got no clear call; they are omitted. This is one part of the list. Where a SMILES comes first, the peptide text is derived from it. Bridges are numbered along the chain shown (N, C = ends). Side-chain parts run from the residue outwards. [ ]: non-standard residue; d: D form. The star is where a group is joined. Octanoyl(6-Me) = CCC(C)CCCCC(=O)*; X1 = CCC(C)C(N)C1=NC(C(=O)*)CS1; Orn = NCCC[CH](N)C(=O)O; Dab = NCC[CH](N)C(=O)O
reported_endpoint: normalized growth
Answers are plain numbers.

# compound, measured_number
measured = [
    ("CC(C)(C)c1ccc(CSc2nc(N)cc(=O)[nH]2)cc1", 1.01),
    ("COc1c2occc2c(OC)c2c(=O)cc(C)oc12", 1.02),
    ("Cc1onc(-c2c(Cl)cccc2Cl)c1C(=O)N[C@@H]1C(=O)N2[C@@H]1SC(C)(C)[C@@H]2C(=O)O", 1.01),
    ("CC(=O)CC1CCCCN1 (configuration not stated)", 1.01),
    ("COc1cccc(OC)c1C(=O)N[C@@H]1C(=O)N2[C@@H]1SC(C)(C)[C@@H]2C(=O)O", 0.974),
    ("CCOc1ccc(NC(C)=O)cc1", 1.02),
    ("COc1ccc(C(=O)O)c(O)c1OC", 1.01),
    ("CCC(C)CCCCC(=O)NC(CCN)C(=O)NC(C(=O)NC(CCN)C(=O)NC1CCNC(=O)C(C(C)O)NC(=O)C(CCN)NC(=O)C(CCN)NC(=O)C(CC(C)C)NC(=O)C(Cc2ccccc2)NC(=O)C(CCN)NC1=O)C(C)O (configuration not stated) ({Octanoyl(6-Me)}-[Dab]T[Dab][Dab][Dab]FL[Dab][Dab]T; lactam 4-C; configuration not given here)", 0.982),
    ("Cc1cccc(C(=O)c2ccccc2C(=O)O)c1", 1.01),
    ("CCC(C)C(N)C1=NC(C(=O)NC(CC(C)C)C(=O)NC(CCC(=O)O)C(=O)NC(C(=O)NCCCCC2NC(=O)C(CC(N)=O)NC(=O)C(CC(=O)O)NC(=O)C(Cc3cnc[nH]3)NC(=O)C(Cc3ccccc3)NC(=O)C(C(C)CC)NC(=O)C(CCCN)NC2=O)C(C)CC)CS1 (stereo not drawn) (cyclo(DNK([Ile-Glu-Leu-X1])[Orn]IFH); configuration not given here)", 0.999),
]

Provide reported normalized growth for each item, in the same order as listed.
1. CC1(C)C=Cc2cc3ccc(=O)oc3cc2O1
2. CC1=NN(c2cccc(S(N)(=O)=O)c2)C(=O)C1
3. O/N=C\c1sccc1Oc1ccccc1
4. C=C(C)[C@H]1Cc2c(ccc3c2O[C@@H]2COc4cc(OC)c(OC)cc4[C@@H]2C3=O)O1
5. Cc1ccc(=O)n(-c2ccccc2)c1
6. CCc1cccc2c3c([nH]c12)C(CC)(CC(=O)O)OCC3 (configuration not stated)
7. Cc1ccc(N=Cc2cccs2)cc1Cl
8. NC(=O)NO

1. 1
2. 0.977
3. 0.98
4. 0.995
5. 0.991
6. 1.01
7. 1
8. 1.02
